Reference source for all entries: ChEMBL document CHEMBL3431459

Assay: SUPPLEMENTARY: PAMPA permeability assay
Format: physicochemical
Details: read-out: Permeability
Lab note: anything with Papp at or over 1 ×10⁻⁶ cm/s counts as t; the rest go in f.

Cc1cc(C)cc(S(=O)(=O)N2CCc3ccc(C(=O)Nc4nc(CC(=O)O)cs4)cc32)c1
t
COc1ccc(Cl)cc1S(=O)(=O)N1CCOc2ccc(C(=O)Nc3ccccc3)cc21
t
N#Cc1ccc(-c2nc([C@H]3CCCCN3C(=O)COc3ccccc3)no2)cn1
t
Cc1cc(C(=O)Nc2ccc(-c3nnn[nH]3)cc2)nn1Cc1ccc(OC(F)F)cc1
t
O=C1CCCN1c1cccc(-c2noc([C@H]3CCCCN3C(=O)COc3ccccc3)n2)c1
t
COc1ccc(Cl)cc1S(=O)(=O)N(C)c1cc(C(=O)Nc2nc(CC(=O)O)cs2)cc2c1OCCO2
t

Would you say O=C(O)c1ccc(NC(=O)c2ccc3c(c2)N(S(=O)(=O)c2cccc(Cl)c2)CC[S+]3[O-])cc1 (centres undefined) shows Papp at minimum 1 ×10⁻⁶ cm/s?
f

Would you say "COC[C@@H]1CCN(NC(=O)c2cccc(-c3n[nH]c([C@H]4CCCCN4C(=O)COc4ccccc4)n3)c2)C1" shows Papp at minimum 1 ×10⁻⁶ cm/s?
t

Would you say COc1ccc(Cl)cc1S(=O)(=O)N1CC(C(=O)O)Oc2ccc(C(=O)Nc3ccc(F)cc3)cc21 (centres undefined) shows Papp at minimum 1 ×10⁻⁶ cm/s?
f

Would you say "O=C(c1cc(-c2noc([C@H]3CCCCN3C(=O)COc3ccccc3)n2)ccn1)N1CCOCC1" shows Papp at minimum 1 ×10⁻⁶ cm/s?
t

Would you say "CC(=O)Nc1cc(-c2noc([C@H]3CCCCN3C(=O)COc3ccccc3)n2)ccc1F" shows Papp at minimum 1 ×10⁻⁶ cm/s?
t

Would you say "O=C(COc1ccccc1)N1CCCC[C@@H]1c1nc(-c2ccccc2)cs1" shows Papp at minimum 1 ×10⁻⁶ cm/s?
t

Would you say "O=C(COc1ccccc1)N1CCCC[C@@H]1c1nc(-c2cccc(F)c2)n[nH]1" shows Papp at minimum 1 ×10⁻⁶ cm/s?
t

Would you say "O=C(COc1ccccc1)N1CCCC[C@@H]1c1nc(-c2ccc3[nH]c(=O)[nH]c3c2)no1" shows Papp at minimum 1 ×10⁻⁶ cm/s?
t

Would you say Cc1cc(C)cc(S(=O)(=O)N2CC[S+]([O-])c3ccc(C(=O)Nc4ccc(C(=O)O)cc4)cc32)c1 (centres undefined) shows Papp at minimum 1 ×10⁻⁶ cm/s?
f

----------
Listed next: entries and their corresponding solubility kinetic.
Assay: SUPPLEMENTARY: Lyophilisation Solubility Assay (LYSA)
Format: physicochemical
Details: read-out: Kinetic_solubility
Number in µg/mL, nothing else.

O=C1CN(c2cccc(-c3nc([C@H]4CCCCN4C(=O)COc4ccccc4)no3)c2)C(=O)N1
127
O=C(COc1ccccc1)N1CCCC[C@@H]1c1nc(-c2ccc3[nH]cnc3c2)no1
9.55

Looking up "COc1ccc(Cl)cc1CN(C(=O)C(C)C)c1cc(C(=O)Nc2nc(CC(=O)O)cs2)ccc1Cl" , I found its solubility kinetic recorded as 438

Looking up "O=C(COc1ccccc1)N1CCCC[C@@H]1c1nc(-c2cccc(F)c2)n[nH]1" , I found its solubility kinetic recorded as 23

Looking up "COc1ccc(Cl)cc1S(=O)(=O)N1CCOc2c(F)cc(C(=O)Nc3ccc(C(=O)O)cc3)cc21" , I found its solubility kinetic recorded as 5

Looking up "COc1ccc(Cl)cc1S(=O)(=O)Nc1cccc(C#Cc2ccc(C(=O)O)cc2)c1" , I found its solubility kinetic recorded as 8

Looking up "Cc1cc(C)cc(S(=O)(=O)N2CCS(=O)(=O)c3ccc(C(=O)Nc4ccc(C(=O)O)cc4)cc32)c1" , I found its solubility kinetic recorded as 481

Looking up "COc1ccc(Cl)cc1S(=O)(=O)N1CCOc2ccc(C(=O)Nc3ccc(C(=O)O)nc3)cc21" , I found its solubility kinetic recorded as 195

----------
Target: Carnitine O-palmitoyltransferase 1, liver isoform (Homo sapiens, UniProt P50416)
Assay: SUPPLEMENTARY: Inhibition of Carnitine palmitoyltransferase 1, liver isoform
reported.endpoint: pIC50
Scale for pIC50: -log10 of concentration given in mol/L; no unit attached.

Example entries begin here.
O=C(c1nc([C@H]2CCCCN2C(=O)COc2ccccc2)no1)N1CCC(c2ccncc2)C1 (some centres undefined)
6.67
O=C1CCC(=O)N1c1cc(F)cc(-c2noc([C@H]3CCCCN3C(=O)COc3ccccc3)n2)c1
7.12
COc1ccc(Cl)cc1CN1C(=O)OC(C)(C)c2ccc(C(=O)Nc3ccc(C(=O)O)c(Cl)c3)cc21
6.61
COc1ccc(Cl)cc1S(=O)(=O)N(C)c1cccc(C(=O)Nc2nc(CC(=O)O)cs2)c1
7.21
O=C(COc1ccccc1)N1CCCC[C@@H]1c1noc(-c2cnc3ccccc3n2)n1
6.75

Looking up "CS(=O)(=O)NCc1cccc(-c2nc([C@H]3CCCCN3C(=O)COc3ccccc3)no2)c1" , I found its pIC50 recorded as 7.18

----------
Assay: SUPPLEMENTARY: Lipophilicity (log D) Determination by high-throughput shake-flask
Type: physicochemical
Settings: octanol/water
reported.endpoint: logD
Please respond with just the number, no unit label.

Looking up "CN1CCN(C(=O)COc2ccccc2)[C@@H](c2nc(-c3ccc4c(c3)CC(=O)N4)no2)C1" , I found its logD recorded as 1.91

Looking up "COc1ccc(Cl)cc1Cc1cn(C)c2ccc(C(=O)Nc3nc(CC(=O)O)cs3)cc12" , I found its logD recorded as 2.39

----------
Target: Carnitine O-palmitoyltransferase 1, liver isoform (Homo sapiens)
Sequence (P50416 whole entry): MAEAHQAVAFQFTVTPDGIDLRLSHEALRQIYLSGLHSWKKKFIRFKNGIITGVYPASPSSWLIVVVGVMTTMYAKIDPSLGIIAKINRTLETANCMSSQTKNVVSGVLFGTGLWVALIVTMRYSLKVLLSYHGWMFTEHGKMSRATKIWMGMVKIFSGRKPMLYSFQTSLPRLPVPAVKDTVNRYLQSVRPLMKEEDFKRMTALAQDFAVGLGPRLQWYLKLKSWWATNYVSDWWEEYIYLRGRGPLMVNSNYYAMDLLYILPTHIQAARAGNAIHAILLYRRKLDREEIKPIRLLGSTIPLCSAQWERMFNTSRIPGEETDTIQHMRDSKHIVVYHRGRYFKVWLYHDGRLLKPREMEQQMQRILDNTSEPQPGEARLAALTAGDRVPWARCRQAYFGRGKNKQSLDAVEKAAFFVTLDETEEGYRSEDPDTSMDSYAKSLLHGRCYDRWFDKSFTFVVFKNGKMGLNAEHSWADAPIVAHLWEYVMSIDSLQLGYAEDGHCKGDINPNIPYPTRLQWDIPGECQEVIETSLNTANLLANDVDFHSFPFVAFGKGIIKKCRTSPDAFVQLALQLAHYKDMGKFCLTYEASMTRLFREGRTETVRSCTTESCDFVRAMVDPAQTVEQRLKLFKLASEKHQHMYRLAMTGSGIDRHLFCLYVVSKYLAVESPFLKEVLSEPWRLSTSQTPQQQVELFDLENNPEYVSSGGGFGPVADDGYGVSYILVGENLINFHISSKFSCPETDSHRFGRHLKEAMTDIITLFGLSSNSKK
Test: SUPPLEMENTARY: Inhibition of Carnitine palmitoyltransferase 1, liver isoform
Listed next: entries and their corresponding log10(IC50).
Scale: log10; quantity: IC50; unit before log: nM

Example entries begin here.
COc1ccc(Cl)cc1S(=O)(=O)N1CCCCc2ccc(C(=O)Nc3ccc(C(=O)O)c(F)c3)cc21
2.12
Nc1cccc(-c2n[nH]c([C@H]3CCCCN3C(=O)COc3ccccc3)n2)c1
2.04
CC(=O)Nc1cc(F)cc(-c2noc([C@H]3CCCCN3C(=O)COc3ccccc3)n2)c1
2.09
COCCN(c1cc(C(=O)Nc2ccc(CC(=O)O)cc2)cc2c1OCO2)S(=O)(=O)c1cc(Cl)ccc1OC
2.79
O=C(COc1ccccc1)N1CCCC[C@@H]1c1noc(-c2ccc(Cl)nc2)n1
2.19

Looking up "O=C1Nc2ccc(-c3n[nH]c([C@H]4CCCCN4C(=O)COc4ccccc4)n3)cc2CO1" , I found its log10(IC50) recorded as 2.35

Looking up "CCN(CC)C(=O)c1ccc(-c2noc([C@H]3CCCCN3C(=O)COc3ccccc3)n2)cc1" , I found its log10(IC50) recorded as 1.60

Looking up "COc1ccc(Cl)cc1S(=O)(=O)N1CCOc2ccc(C(=O)Nc3nc(CC(=O)O)cs3)cc21" , I found its log10(IC50) recorded as 1.70

Looking up "N#Cc1ccc(-c2nc([C@H]3CCCCN3C(=O)COc3ccccc3)no2)cn1" , I found its log10(IC50) recorded as 2.22

----------
Biological target: Carnitine O-palmitoyltransferase 1, liver isoform (Rattus norvegicus, UniProt P32198)
Sequence (P32198 whole entry, canonical isoform): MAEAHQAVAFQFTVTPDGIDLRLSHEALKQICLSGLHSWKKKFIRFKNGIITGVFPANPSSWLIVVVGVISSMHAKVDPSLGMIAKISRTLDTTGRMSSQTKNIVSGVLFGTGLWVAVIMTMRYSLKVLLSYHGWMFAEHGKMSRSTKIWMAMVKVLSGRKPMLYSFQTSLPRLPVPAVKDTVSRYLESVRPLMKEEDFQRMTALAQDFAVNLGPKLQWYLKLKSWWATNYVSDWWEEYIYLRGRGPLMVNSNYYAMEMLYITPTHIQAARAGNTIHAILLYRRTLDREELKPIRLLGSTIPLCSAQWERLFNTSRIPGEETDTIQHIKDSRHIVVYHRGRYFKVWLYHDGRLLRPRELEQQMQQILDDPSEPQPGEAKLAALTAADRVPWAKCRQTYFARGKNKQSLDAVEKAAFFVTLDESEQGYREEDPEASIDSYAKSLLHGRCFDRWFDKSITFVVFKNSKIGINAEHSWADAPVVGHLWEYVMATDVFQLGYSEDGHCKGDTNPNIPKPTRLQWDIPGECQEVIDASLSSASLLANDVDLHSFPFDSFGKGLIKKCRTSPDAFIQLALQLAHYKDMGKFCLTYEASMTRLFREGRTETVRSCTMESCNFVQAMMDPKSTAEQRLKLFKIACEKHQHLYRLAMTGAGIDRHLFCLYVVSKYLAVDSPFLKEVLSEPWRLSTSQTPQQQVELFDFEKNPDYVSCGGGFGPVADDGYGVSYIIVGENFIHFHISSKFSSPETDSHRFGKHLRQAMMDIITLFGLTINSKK
Test: SUPPLEMENTARY: Inhibition of Carnitine palmitoyltransferase 1, liver isoform
Friendly reminder: IC50 below 70 nM is class 1, at or above is class 0.

Example entries and their recorded answers appear below.
O=C(COc1ccccc1)N1CCCC[C@@H]1c1csc(C2COc3ccccc3O2)n1 (some centres undefined)
class 0
COc1ccc(Cl)cc1S(=O)(=O)Nc1cc(C(=O)Nc2ccc(C(=O)O)cc2)cc(OC)c1OC
class 0

Please state whether IC50 is below 70 nM for "Cc1cc(-c2nc([C@H]3CCCCN3C(=O)COc3ccccc3)no2)on1"
class 0

Please state whether IC50 is below 70 nM for COC1CCC(c2nc([C@H]3CCCCN3C(=O)COc3ccccc3)no2)CC1 (some centres undefined)
class 0

Please state whether IC50 is below 70 nM for "COc1ccc(Cl)cc1S(=O)(=O)N1COc2c(F)cc(C(=O)Nc3nc(CC(=O)O)cs3)cc21"
class 1

Please state whether IC50 is below 70 nM for "COc1ccc(Cl)cc1S(=O)(=O)c1cn(CS(C)(=O)=O)c2ccc(C(=O)Nc3ccccc3)cc12"
class 1

Please state whether IC50 is below 70 nM for "O=C(COc1ccncc1)N1CCCC[C@@H]1c1nnc(-c2cccc(C(F)(F)F)c2)[nH]1"
class 0

Please state whether IC50 is below 70 nM for "CNC(=O)c1cncc(-c2noc([C@H]3CCCCN3C(=O)COc3ccccc3)n2)c1"
class 0
